Cited source for all entries: paper PMC8713471

- subjectOfTest: MOX-1 β-lactamase (Klebsiella pneumoniae)
- Sequence (Q51578 entry or part of it): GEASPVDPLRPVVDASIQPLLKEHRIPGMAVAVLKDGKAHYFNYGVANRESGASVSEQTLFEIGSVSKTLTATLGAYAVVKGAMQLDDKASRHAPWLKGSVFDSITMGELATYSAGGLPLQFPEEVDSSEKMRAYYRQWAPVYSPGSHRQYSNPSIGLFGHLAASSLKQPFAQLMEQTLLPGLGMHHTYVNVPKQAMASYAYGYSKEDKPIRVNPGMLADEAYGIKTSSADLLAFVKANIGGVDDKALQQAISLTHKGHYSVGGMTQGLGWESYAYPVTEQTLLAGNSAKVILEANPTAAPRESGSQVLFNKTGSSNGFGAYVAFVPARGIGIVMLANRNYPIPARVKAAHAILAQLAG
- methodSummary: Inhibition of cephalothin hydrolysis by purified MOX-1, […] min pre-incubation, UV/VIS (Ki and IC50)
- Type: biochemical
- Parameters: gene blaMOX-1; purified MOX-1, (His)8 tag removed with thrombin
pKi: −log10 of the molar value.

structureAsSmiles: C[C@H]1[C@H](NC(=O)/C(=N\OC(C)(C)C(=O)O)c2csc(N)n2)C(=O)N1S(=O)(=O)O
pKi: 8.00

* * *

- subjectOfTest: MOX-1 β-lactamase (Klebsiella pneumoniae)
- methodSummary: X-ray crystal structure at […] Å; also Ki and IC50 with purified enzyme (cephalothin hydrolysis)
- Type: biochemical
- Set-up: gene blaMOX-1; N-terminal (His)8-tagged MOX-1 for crystals (model Asp6-Arg305 and Gln310-Gly362); tag removed with thrombin for kinetics

structureAsSmiles: O=C(Cc1cccs1)N[C@@H](Cn1cc(C(=O)O)nn1)B(O)O
Ki: 0.56 µM
